- Measurement target: butyrylcholine esterase (BuChE) (Mus musculus)
- Construct: brain homogenate and serum of mouse were used as choline esterase enzyme sources; from tissue; host or cells: mouse serum
- Sequence (Q03311 30-603): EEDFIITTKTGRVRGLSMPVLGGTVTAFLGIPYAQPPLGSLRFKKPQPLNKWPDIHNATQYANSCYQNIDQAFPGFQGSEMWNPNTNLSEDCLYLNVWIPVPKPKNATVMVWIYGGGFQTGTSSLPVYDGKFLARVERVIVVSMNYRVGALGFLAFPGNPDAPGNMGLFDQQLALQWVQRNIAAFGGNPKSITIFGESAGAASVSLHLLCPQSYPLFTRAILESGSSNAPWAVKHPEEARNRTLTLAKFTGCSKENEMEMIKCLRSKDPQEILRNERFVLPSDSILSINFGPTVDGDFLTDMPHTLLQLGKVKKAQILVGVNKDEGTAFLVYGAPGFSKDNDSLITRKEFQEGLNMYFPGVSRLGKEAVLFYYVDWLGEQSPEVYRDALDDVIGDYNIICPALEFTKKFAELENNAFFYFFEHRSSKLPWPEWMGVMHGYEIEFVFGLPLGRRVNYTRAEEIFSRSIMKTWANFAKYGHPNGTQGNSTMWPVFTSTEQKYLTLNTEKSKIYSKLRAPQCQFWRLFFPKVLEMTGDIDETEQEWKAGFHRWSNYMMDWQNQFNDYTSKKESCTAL
- Protocol description: In vitro assay for choline esterase inhibition (Ellman method), butyrylthiocholine substrate, mouse serum
- Type: biochemical
pIC50: −log10 of the molar value.
Would you mind labelling by pIC50? At or over 7 is Satisfied, under is Not satisfied.

Answered cases to consult:
Qu. hey, is pIC50 for this one >= 7? "CC(C)c1ccc(NC(=O)Oc2ccc3c(c2)CCN3Cc2ccc(O)cc2)cc1"
Ans. Not satisfied

Qu. Query "CC(C)c1ccc(CCNC(=O)Oc2ccc3c(c2)CCN3Cc2ccccc2)cc1" next
Ans. Not satisfied

Qu. Would you kindly repeat that for "CC(C)c1ccc(NC(=O)Oc2ccc3c(c2)CCN3CC2CCCCC2)cc1" ?
Ans. Not satisfied

Qu. Same question, "O=C(Nc1ccc2c(c1)OCCO2)Oc1ccc2c(c1)CCN2Cc1ccccc1" this time
Ans. Not satisfied

Qu. Now give it for O=C(NC1Cc2ccccc2C1)Oc1ccc2c(c1)CCN2Cc1ccccc1 [Example 44, 1-benzylindolin-5-yl 2-indanylcarbamate] too.
Ans. Satisfied

Qu. Please answer likewise for "CN(CC1CCOCC1)C(=O)Oc1ccc2c(c1)C(C)(C)CN2Cc1cccnc1"
Ans. Satisfied

Qu. Also check Cc1ccc(C(C)NC(=O)Oc2ccc3c(c2)CCN3Cc2ccccc2)cc1 (stereo not drawn)
Ans. Not satisfied

Qu. // next record "O=C(NCCSCc1ccco1)Oc1ccc2c(c1)CCN2Cc1ccccc1"
Ans. Satisfied

Qu. What about "O=C(NC1CCN(Cc2ccccc2)CC1)Oc1ccc2c(c1)CCN2Cc1ccccc1" ?
Ans. Not satisfied

Qu. Same question, "CN(C)C(=O)Oc1ccc2c(c1)CCN2Cc1ccccc1" this time
Ans. Not satisfied

Others:
Qu. Does the compound "CC(C)c1ccc(NC(=O)Oc2ccc3c(c2)CCN3Cc2cccc(O)c2)cc1" have recorded pIC50 that is 7 or more?
Ans. Not satisfied

Qu. Lookup "CC(C)(C)CCNC(=O)Oc1ccc2c(c1)CCN2Cc1ccccc1"
Ans. Satisfied

Qu. One more compound: COC1C=CC(CNC(=O)Oc2ccc3c(c2)CCN3Cc2ccccc2)(OC)O1 (stereo not drawn)
Ans. Not satisfied

Qu. Same for "CN(CC1CCOCC1)C(=O)Oc1ccc2c(c1)C(C)(C)CN2Cc1ccccn1"
Ans. Satisfied

Qu. Item: "O=C(NCC1CCCCC1)Oc1ccc2c(c1)CCN2Cc1ccccc1"
Ans. Satisfied

Qu. Another compound: "Cc1ccc(CCNC(=O)Oc2ccc3c(c2)CCN3Cc2ccccc2)c(C)c1"
Ans. Satisfied

Data origin: patent US8686024B2
